- Test system: Plasmodium falciparum
- procedure summary: GSK_TCMDC: Inhibition of Plasmodium falciparum Dd2 in whole red blood cells, using parasite LDH activity as an index of growth. Test compounds present at 2uM
- Format: functional
metric name: Inhibition

Exercise: Plasmodium falciparum / Inhibition / COC(=O)c1ccc(CN2CCC(N(Cc3cccc(Oc4ccccc4)c3)S(=O)(=O)c3ccc(NC(C)=O)cc3)CC2)cc1 : value?
Key: 86%

Exercise: Next entry: O=C1NC(=S)N/C1=C/C=C/c1ccc([N+](=O)[O-])o1
Key: 30%

Exercise: Param item: O=C(Nc1ccc(-c2ccc(-c3nc4ccccc4[nH]3)s2)cc1)Nc1ccsc1
Key: 54%

Exercise: Subsequent entry: COc1cc(Cc2cnc(N)nc2N)cc(CC(C)O)c1O (stereo not given)
Key: 2%

Exercise: Now try CCCOc1ccc(-c2nonc2NC(=O)c2cccc(OC)c2)cc1OCCC .
Key: 100%

----------
- Test system: Plasmodium falciparum
- procedure summary: GSK_TCMDC: Inhibition of Plasmodium falciparum Dd2 in whole red blood cells, using parasite LDH activity as an index of growth. Test compounds present at 2uM
- Format: functional
metric name: Inhibition (%)
Write it as a number; the unit % goes unstated.

Exercise: Look at this compound and give its reported Inhibition. Cc1ccccc1CNc1noc(-c2c(-c3ccccc3)noc2C)n1
Key: 70

Exercise: Check COc1ccccc1C1CCN(C2CCC(NC(=O)/C=C/c3cccc(Cl)c3)CC2)CC1 (centres undefined) too.
Key: 20

----------
- Tested on: Plasmodium falciparum
- procedure summary: GSK_TCMDC: Inhibition of Plasmodium falciparum Dd2 in whole red blood cells, using parasite LDH activity as an index of growth. Test compounds present at 2uM
- Assay type: functional
metric name: Inhibition (%)
Please give a number only; it is taken to be in %.

>>> value_measured("O=C(Nc1cccc(-c2nn3ccccc3c2-c2ccnc(Nc3cccc(-c4cnco4)c3)n2)c1)C1CCCCC1")
99
>>> value_measured("O=C(O)C(F)(F)F.OC1CCCN(Cc2cccc(-c3ccc(-c4nc5cc(C(F)(F)F)ccc5[nH]4)cc3)c2)C1 (centres undefined)")
91
>>> value_measured("CCn1cnc2c(N3CCCCS3(=O)=O)cc(C(=O)N[C@@H](Cc3ccccc3)[C@H](O)CNC3CCOCC3)cc21")
87
>>> value_measured("O=C(NCCN1CCCC1)c1cccc(-c2ccc(-c3nc4cc(F)ccc4[nH]3)s2)c1")
4
>>> value_measured("CCn1c(-c2nonc2N)nc2cnc(Oc3cccc(NC(=O)c4ccc(OCCN5CCCC5)cc4)c3)cc21")
1
>>> value_measured("CCC1CN2CCc3cc(OC)c(OC)cc3C2CC1CC1NCCc2cc(OC)c(OC)cc21.Cl (centres undefined)")
98
>>> value_measured("COc1ccc2ccccc2c1CCCCN1CCN(CC(c2ccc(F)cc2)N2CCC2)CC1.O=C(O)C(F)(F)F (centres undefined)")
51
>>> value_measured("O=C(Nc1ccc(-c2nc3ccccc3[nH]2)cc1)c1ccc(-c2cccc([N+](=O)[O-])c2)o1")
97

Exercise: I have this compound here, Oc1ccccc1CN(CCCN(Cc1ccccn1)Cc1ccccc1O)Cc1ccccn1 , and I need its recorded Inhibition.
Key: 92

----------
- Tested on: HepG2
- procedure summary: GSK_TCMDC: Percent inhibition of human HepG2 cell line. Test compounds present at 10uM.
- Assay type: functional
Reported Inhibition values for the following compounds.
Supply the numeric figure in %, leaving out any unit text.

>>> value_measured("Cc1ccc2c(Cl)c(C(=O)N3CCCc4ccccc43)sc2c1")
4
>>> value_measured("O=C(Nc1ccc2ccccc2c1)c1ccc(CN2CCC(Cc3ccccc3)CC2)cc1")
38
>>> value_measured("O=C(NCCCCCN1CCC(c2c[nH]c3ccccc23)CC1)Nc1ccc(I)c(Cl)c1")
88
>>> value_measured("Cc1cc(C(F)(F)F)n2nc(C(=O)N(Cc3cncn3Cc3cccc(F)c3)CC3CC3)cc2n1")
0

Switching to the query record.
Exercise: For HepG2, provide Inhibition of COc1cccc(-c2cc(C(=O)Nc3ccc4[nH]c(-c5ccccc5)nc4c3)[nH]n2)c1.O=C(O)C(F)(F)F please.
Key: 68

Hello, the source for this data is ChEMBL document CHEMBL1157539, in case you need it.
